STUDY SYSTEM: Clade B BaL gp120 protein (HIV-1 Clade B, BaL)
METHOD SUMMARY: BLI (Octet), IgG on anti-hIgG Fc sensor, gp120 analyte, 1:1 fit
RECORDED METRIC: pKd
Field pKd (float): negative decimal logarithm of the concentration in molar.

Enquiry: Record request: pKd value, item Germ17 (antibody, V domains shown) VH: QVDLVQSGAVVKKPGDSVRVSCEAQGYRFPDYIIHWIRRAPGQGPEWMGWMNPMGGQVNIPWKFQGRVSMTRDTSIETAYMDLRGLRSDDTAVYYCVRDRSNGSGKRFESSNWFLDLWGRGTLVTVSS VL: QSALTQPRSVSGSPGQSVTISCTGTHNLVSWCQHHPGKAPKLMIYDFNKRPSGVPDRFSGSGSGGTASLTISGLQAEDEAEYFCWAYEAFGGGTKLTVL
Return: 9.19

Enquiry: Param item = Germ12 (antibody, V domains shown) VH: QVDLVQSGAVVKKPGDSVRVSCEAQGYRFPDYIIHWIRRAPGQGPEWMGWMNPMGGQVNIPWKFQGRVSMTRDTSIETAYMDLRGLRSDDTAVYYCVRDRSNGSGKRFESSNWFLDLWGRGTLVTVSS VL: QSALTQPRSVSGSPGQSVTISCTGTHNLVSWCQHQPGRAPKLLIYDFNKRPSGVPDRFSGSGSGGTASLTISGLQDEDDAEYFCWAYEAFGGGTKLTVL ; retrieve measured pKd.
Return: 9.06

Enquiry: // returns reported pKd for input CysCA (antibody, V domains shown) VH: ADLVQSGAVVKKPGDSVRISCEAQGYRFPDYIIHWIRRAPGQGPEWMGWMNPMGGQVNIPWKFQGRVSMTRDTSIETAFLDLRGLKSDDTAVYYCVRDRSNGSGKRFESSNWFLDLWGRGTAVTIQS VL: QSALTQPRSVSASPGQSVTISCTGTHNLVSWAQHQPGRAPKLLIYDFNKRPSGVPDRFSGSGSGGTASLTITGLQDDDDAEYFCWAYEAFGGGTKLTVL
Return: 8.96

Enquiry: Look at this binder and give its reported pKd. Germ12_NglycoSA_CysCA (antibody, V domains shown) VH: QVDLVQSGAVVKKPGDSVRVSCEAQGYRFPDYIIHWIRRAPGQGPEWMGWMNPMGGQVNIPWKFQGRVSMTRDTSIETAYMDLRGLRSDDTAVYYCVRDRSNGAGKRFESSNWFLDLWGRGTLVTVSS VL: QSALTQPRSVSGSPGQSVTISCTGTHNLVSWAQHQPGRAPKLLIYDFNKRPSGVPDRFSGSGSGGTASLTISGLQDEDDAEYFCWAYEAFGGGTKLTVL
Return: 9.20

Enquiry: Given the entry Hydro2 (antibody, V domains shown) VH: ADLVQSGAVVKKPGDSVRISCEAQGYRFPDYIIHWIRRAPGQGPEWMGWMNPMGGQVNIPQKFQGRVSMTRDTSIETAFLDLRGLKSDDTAVYYCVRDRSNGSGKRFESSNWFLDLWGRGTAVTIQS VL: QSALTQPRSVSASPGQSVTISCTGTHNLVSWCQHQPGRAPKLLIYDFNKRPSGVPDRFSGSGSGGTASLTITGLQDDDDAEYFCWAYENFGGGTKLTVL , report its measured pKd.
Return: 9.02

Moving on to the next binder.
Enquiry: Which value of pKd has been reported for NglycoSA (antibody, V domains shown) VH: ADLVQSGAVVKKPGDSVRISCEAQGYRFPDYIIHWIRRAPGQGPEWMGWMNPMGGQVNIPWKFQGRVSMTRDTSIETAFLDLRGLKSDDTAVYYCVRDRSNGAGKRFESSNWFLDLWGRGTAVTIQS VL: QSALTQPRSVSASPGQSVTISCTGTHNLVSWCQHQPGRAPKLLIYDFNKRPSGVPDRFSGSGSGGTASLTITGLQDDDDAEYFCWAYEAFGGGTKLTVL in the records?
Return: 9.08
